target: New Delhi metallo-β-lactamase (NDM-1) (Escherichia coli, UniProt E5KIY2); construct: recombinant NDM-1 purified from E. coli BL21(DE3)-pET-32a(+)-blaNDM-1; assay: nitrocefin hydrolysis assay with purified NDM-1, OD492
Sequence (E5KIY2 29-270 limits assumed): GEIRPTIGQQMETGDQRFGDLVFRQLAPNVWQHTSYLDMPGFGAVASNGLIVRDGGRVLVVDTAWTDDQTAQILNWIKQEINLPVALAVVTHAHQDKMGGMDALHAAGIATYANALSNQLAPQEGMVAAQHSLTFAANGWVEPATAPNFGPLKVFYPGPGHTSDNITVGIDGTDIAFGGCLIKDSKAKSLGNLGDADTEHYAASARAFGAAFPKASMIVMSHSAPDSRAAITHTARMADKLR
READOUT KIND: IC50 (µM)
Numbers only, in µM.

Entry CC(C)NCC(O)COc1ccc(CCOCC2CC2)cc1 (stereo not shown) , New Delhi metallo-β-lactamase (NDM-1) (Escherichia coli, UniProt E5KIY2) data, IC50 value: 19.3
